Target: 5-HT2C receptor (Rattus norvegicus)
Sequence (P08909 33-460): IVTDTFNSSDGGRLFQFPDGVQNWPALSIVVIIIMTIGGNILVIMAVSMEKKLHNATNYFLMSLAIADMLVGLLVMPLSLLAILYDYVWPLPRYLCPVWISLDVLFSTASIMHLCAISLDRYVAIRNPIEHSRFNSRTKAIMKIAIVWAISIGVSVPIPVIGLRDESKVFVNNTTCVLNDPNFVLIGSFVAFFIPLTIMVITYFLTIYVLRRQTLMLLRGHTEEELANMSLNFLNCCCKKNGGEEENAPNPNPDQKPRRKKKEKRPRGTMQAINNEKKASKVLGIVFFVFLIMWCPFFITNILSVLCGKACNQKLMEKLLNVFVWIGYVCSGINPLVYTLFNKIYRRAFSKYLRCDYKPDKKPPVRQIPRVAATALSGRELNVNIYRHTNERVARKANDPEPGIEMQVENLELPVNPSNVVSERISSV
pKi: −log10 of the molar value.
MEASURED_ENDPOINT: pKi

Use the examples below as a reference point.
Query: Give the reported value of pKi for this record: `O=C1NCCN1CCN1CCN([C@@H]2C[C@@H](c3ccc(F)cc3)c3ccccc32)CC1`
Reply: 7.72

Query: Quote pKi reported for `COc1cc(OC)c(C(=O)CCCCN2CCC3(CC2)NC(=O)NC3=O)cc1NS(=O)(=O)c1ccc(C(F)(F)F)cc1` please.
Reply: 9.25

Query: Give me measured pKi, please, for this compound: `O=C(c1ccc(F)cc1)C1CCN(CCn2c(=O)[nH]c3ccccc3c2=O)CC1`
Reply: 7.85

P: Cc1ccc2c(c1)c(-c1ccc(F)cc1)c(C)n2C1CCN(CCN2CCNC2=O)CC1
Q: CCc1nn(CCCN2CCN(c3cccc(Cl)c3)CC2)c(=O)n1CCOc1ccccc1
Query: Form field 'greater pKi' accepts P or Q ; which applies? Returns: label corresponding to the selected item.
Reply: P
(P: 8.16, Q: 7.48)
